Hello, the source for this data is patent US9988405B2, in case you need it.

Record form. Attribute: pIC50. Fill in for each entry.
# System: Paclitaxel-resistant human ovarian carcinoma cell A2780/TAX
# testDescription: SRB anti-proliferative assay, drug-resistant A2780/TAX
# Type: cell-based
# recordedConditions: paclitaxel-resistant A2780/TAX, SRB, read-out: Anti-proliferative IC50, A2780/TAX
A value of pIC50 is the negative decimal logarithm of a concentration given in moles per litre.

Request body: readout pIC50, system Paclitaxel-resistant human ovarian carcinoma cell A2780/TAX, query O=C(O)c1ccc(/C=C/C(=O)c2ccccc2-c2cccc(F)c2)cc1 . Return the value. 6.30

Return pIC50 measured with Paclitaxel-resistant human ovarian carcinoma cell A2780/TAX given this molecule: O=C(/C=C/c1cccc(O)c1)c1ccccc1-c1cccc(F)c1 6.89

// lookup pIC50 | system=Paclitaxel-resistant human ovarian carcinoma cell A2780/TAX | key= CN(C)c1ccc(/C=C/C(=O)c2ccccc2-c2cccc(F)c2)cc1Br 7.02

Lab note: need pIC50 for N#Cc1ccc(/C=C/C(=O)c2ccccc2-c2cccc(F)c2)cc1 on Paclitaxel-resistant human ovarian carcinoma cell A2780/TAX, anyone have it? 6.43

Fill in the recorded pIC50 for this molecule, with Paclitaxel-resistant human ovarian carcinoma cell A2780/TAX as test system: O=C(/C=C/c1ccc(O)c(S(=O)(=O)O)c1)c1ccccc1-c1cccc(F)c1 6.91
